# target.system: T1, human prolactin receptor (PRLR) (human, UniProt P16471 25-622)
# T1 sequence: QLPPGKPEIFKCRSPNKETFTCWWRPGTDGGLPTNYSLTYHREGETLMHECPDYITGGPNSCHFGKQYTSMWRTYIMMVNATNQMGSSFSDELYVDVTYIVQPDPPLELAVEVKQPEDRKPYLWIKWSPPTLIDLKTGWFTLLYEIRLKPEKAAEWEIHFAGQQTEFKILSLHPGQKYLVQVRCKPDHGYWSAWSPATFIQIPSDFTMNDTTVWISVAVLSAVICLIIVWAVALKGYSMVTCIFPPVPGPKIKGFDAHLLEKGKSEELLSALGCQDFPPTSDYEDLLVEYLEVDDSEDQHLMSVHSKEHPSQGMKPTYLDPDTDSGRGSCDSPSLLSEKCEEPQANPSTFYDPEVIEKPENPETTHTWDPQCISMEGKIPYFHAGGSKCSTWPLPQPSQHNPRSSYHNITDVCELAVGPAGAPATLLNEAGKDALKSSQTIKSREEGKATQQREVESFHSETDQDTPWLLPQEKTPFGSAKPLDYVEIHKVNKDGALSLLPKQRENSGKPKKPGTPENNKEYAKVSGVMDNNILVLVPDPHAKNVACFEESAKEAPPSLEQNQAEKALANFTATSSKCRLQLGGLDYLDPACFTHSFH
# assay.method.text: cell-based or functional assay
# maps each entry to its IC50, cell viability, MCF7/PRLR cells

| binder | uom | IC50, cell viability, MCF7/PRLR cells |
| --- | --- | --- |
| H1H6958N2-DM1 (antibody, human IgG1, V domains shown, DM1 conjugated through SMCC linker; attachment residues not stated) VH: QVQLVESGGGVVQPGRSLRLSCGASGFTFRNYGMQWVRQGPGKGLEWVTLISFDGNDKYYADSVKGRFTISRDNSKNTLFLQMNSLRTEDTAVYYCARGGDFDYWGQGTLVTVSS VL: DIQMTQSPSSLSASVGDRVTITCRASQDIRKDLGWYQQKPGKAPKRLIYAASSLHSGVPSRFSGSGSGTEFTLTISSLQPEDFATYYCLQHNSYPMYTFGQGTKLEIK | nM | 0.2 |
| H1H6765P-mc-VC-PAB-MMAE (antibody, human IgG1, V domains shown, MMAE conjugated through cleavable mc-vc-PAB linker; attachment residues not stated) VH: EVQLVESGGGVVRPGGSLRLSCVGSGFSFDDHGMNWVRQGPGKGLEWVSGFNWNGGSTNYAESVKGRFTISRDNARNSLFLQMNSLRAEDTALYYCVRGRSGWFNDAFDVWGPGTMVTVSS VL: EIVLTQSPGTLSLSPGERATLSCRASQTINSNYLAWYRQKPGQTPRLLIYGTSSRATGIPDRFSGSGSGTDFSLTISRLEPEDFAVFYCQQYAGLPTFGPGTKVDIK | nM | 0.2 |
| H1H6765P-DM1 (antibody, human IgG1, V domains shown, DM1 conjugated through SMCC linker; attachment residues not stated) VH: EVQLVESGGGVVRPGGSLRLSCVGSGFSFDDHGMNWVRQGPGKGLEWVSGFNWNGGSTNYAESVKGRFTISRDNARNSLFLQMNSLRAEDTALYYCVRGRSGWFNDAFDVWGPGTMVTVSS VL: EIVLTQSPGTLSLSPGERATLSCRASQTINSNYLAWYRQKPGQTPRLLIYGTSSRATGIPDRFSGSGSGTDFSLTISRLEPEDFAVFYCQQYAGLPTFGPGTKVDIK | nM | 0.1 |
| H1H6953N-DM1 (antibody, human IgG1, V domains shown, DM1 conjugated through SMCC linker; attachment residues not stated) VH: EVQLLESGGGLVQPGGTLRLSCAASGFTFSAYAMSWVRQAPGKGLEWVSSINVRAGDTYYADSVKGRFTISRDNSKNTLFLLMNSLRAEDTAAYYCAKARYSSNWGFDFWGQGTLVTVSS VL: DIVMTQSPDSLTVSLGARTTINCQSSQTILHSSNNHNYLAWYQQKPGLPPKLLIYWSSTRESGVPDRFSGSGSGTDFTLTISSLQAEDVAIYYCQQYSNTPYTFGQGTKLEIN | nM | 0.1 |
| H1H6953N-mc-VC-PAB-MMAE (antibody, human IgG1, V domains shown, MMAE conjugated through cleavable mc-vc-PAB linker; attachment residues not stated) VH: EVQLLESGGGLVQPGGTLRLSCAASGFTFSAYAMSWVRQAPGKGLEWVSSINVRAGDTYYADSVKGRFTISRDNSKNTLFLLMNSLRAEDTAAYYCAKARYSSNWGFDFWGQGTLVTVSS VL: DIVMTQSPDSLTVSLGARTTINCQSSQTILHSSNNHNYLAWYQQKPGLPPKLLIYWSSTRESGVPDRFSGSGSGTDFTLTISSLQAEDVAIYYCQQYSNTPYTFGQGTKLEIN | nM | 0.1 |
| H1H6958N2-mc-VC-PAB-MMAE (antibody, human IgG1, V domains shown, MMAE conjugated through cleavable mc-vc-PAB linker; attachment residues not stated) VH: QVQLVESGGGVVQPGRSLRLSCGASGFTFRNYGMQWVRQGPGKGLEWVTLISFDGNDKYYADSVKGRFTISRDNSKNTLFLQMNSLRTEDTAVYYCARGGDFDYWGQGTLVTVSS VL: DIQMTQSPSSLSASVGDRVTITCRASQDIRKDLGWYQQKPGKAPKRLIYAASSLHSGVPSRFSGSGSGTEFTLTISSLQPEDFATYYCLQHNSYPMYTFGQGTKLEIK | nM | 0.2 |
